# target: Stromelysin-1 (Homo sapiens)
# Sequence (P08254 whole entry): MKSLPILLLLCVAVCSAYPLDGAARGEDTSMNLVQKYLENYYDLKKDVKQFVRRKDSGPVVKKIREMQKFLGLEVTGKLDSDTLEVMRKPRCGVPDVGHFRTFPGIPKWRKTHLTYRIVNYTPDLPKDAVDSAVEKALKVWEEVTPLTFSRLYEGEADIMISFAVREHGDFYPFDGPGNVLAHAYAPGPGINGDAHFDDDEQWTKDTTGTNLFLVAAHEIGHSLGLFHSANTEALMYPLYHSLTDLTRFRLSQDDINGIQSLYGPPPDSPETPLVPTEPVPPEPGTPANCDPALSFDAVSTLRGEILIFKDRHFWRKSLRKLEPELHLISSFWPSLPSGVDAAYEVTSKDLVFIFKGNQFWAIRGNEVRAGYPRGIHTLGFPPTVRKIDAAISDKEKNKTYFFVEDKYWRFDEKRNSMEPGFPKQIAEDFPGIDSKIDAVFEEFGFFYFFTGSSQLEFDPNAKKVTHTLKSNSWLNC
pIC50: −log10 of the molar value.
Quick rule for you: pIC50 at 6 or higher means label 1, lower means label 0.

Task: Reported pIC50 at or above 6? CC(C)C[C@H](N[C@H](CCN1C(=O)c2cc3ccccc3cc2C1=O)C(=O)O)C(=O)N1CCCC1c1cccnc1 (stereo in doubt; 76)
Result: label 0

Task: In plain terms: is recorded pIC50 at least 6 for CC(C)C[C@H](N[C@H](CCN1C(=O)c2cc3ccccc3cc2C1=O)C(=O)O)C(=O)Nc1ccccc1 ?
Result: label 0

Task: Quick check: does CCCOc1ccc2c(c1)C(=O)N(CC[C@@H](N[C@@H](CC(C)C)C(=O)N[C@@H](Cc1ccccc1)C(=O)NC)C(=O)O)C2=O have pIC50 greater than or equal to 6?
Result: label 1

Task: Identify whether the reported pIC50 of the following molecule is 6 or greater: CC(C)C[C@H](N[C@H](CCN1C(=O)c2cc3ccccc3cc2C1=O)C(=O)O)C(=O)NCc1ccc(C(=O)O)cc1
Result: label 1

Task: Quick check: does CC(C)C[C@H](NC(=O)[C@H](CC(C)C)N[C@H](CCN1C(=O)c2cc3ccccc3cc2C1=O)C(=O)O)C(=O)NCCN1CCOCC1 have pIC50 greater than or equal to 6?
Result: label 1

Task: Can CNC(=O)[C@H](Cc1ccc(O)cc1)NC(=O)[C@H](CC(C)C)N[C@H](CCN1C(=O)c2cc3ccccc3cc2C1=O)C(=O)O be said to have pIC50 at or above 6?
Result: label 1

Task: API: above_or_equal(metric=pIC50, cutoff=6) for item CC(C)C[C@@H](N[C@H](CCN1C(=O)c2cc3ccccc3cc2C1=O)C(=O)O)C(=O)NC(C)c1ccccc1 (stereo not given in full)
Result: label 0

Source listed as ChEMBL document CHEMBL1127698.
